# assayed-system: HLA-A*3101 (human)
# protocol-details: competition vs 125I probe, purified HLA
# condition-details: remark: other sources report otherwise
measure-name: IC50 (nM)

[[record]]
binder = "RVRAMAIYK [p53.156]"
recorded_value = 5


a: CTYSPALNK [p53.124]
b: KVYQGSYGFR [p53.101.V2]
c: YVFPVIFSR [MAGE3.138.V2R9]
IN: Hi! Can you put these in order of IC50, lowest number first? # list labels per requested ordering
OUT: c, b, a
(c: 6 nM, b: 72 nM, a: 1500 nM)
